B1: tRNA (parent)
chain: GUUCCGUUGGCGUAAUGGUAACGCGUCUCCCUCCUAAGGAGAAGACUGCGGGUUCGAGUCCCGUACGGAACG

variants of: B1; assay: yeast fitness relative to wild type (ratio to wild type); higher = fitter; tRNA-Arg(CCU), competitive growth, 37 C, YPD
Fewer inactive variants are shown than the library holds.
Experimental Endpoint: yeast fitness

Before answering, review these 5 worked examples.
Change: A20G G25C C33G C60A
yeast fitness: ≤ 0.5
//
Change: G12C G17A A20U C34A A42C G48A C62U
yeast fitness: ≤ 0.5
//
Change: C11G A14U U59G
yeast fitness: ≤ 0.5
//
Change: G12C A65U
yeast fitness: 0.735
//
Change: C5G C11G A14U A15U C29A C60G
yeast fitness: ≤ 0.5

Record C5A U8C U13C A40G C62U . Reported yeast fitness: ≤ 0.5

For record C5A C11U A21C the listed yeast fitness is 0.654

get_value(item= A43U G63C A70U , readout=yeast fitness) returns 0.54

// U7A A15U A40G : yeast fitness value = ≤ 0.5
